Test: Leishmania major promastigote growth inhibition, primary screen (AID 1063);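 also: promastigotes grown with compound for 44 hours at 28 °C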
Conditions: Leishmania major promastigotes, resazurin fluorescence viability; at 10 µM; stronger effect = higher value
Out of some 200,000 compounds screened, about 18,000 (9%) were called active. Shown is part of a subset that was picked to be rich in actives.
parameter: inhibition (%)
Expressed in %, but write only the number.

Previously resolved entries follow.
>  <compound>
CCOCC(=O)Nc1ncc(S(=O)(=O)c2ccc([N+](=O)[O-])cc2)s1

>  <measuredValue>
20.7

$$$$
>  <compound>
Cn1ncc2c(NNC(=O)Cc3cccc4ccccc34)ncnc21

>  <measuredValue>
61.6

$$$$

get_value(item= Cn1ncc2c(Nc3cccc4ccccc34)ncnc21 , readout=inhibition) returns -6.4

Reported inhibition ( COc1ccc(C(=O)NC(Cc2ccc(OC(=O)c3ccc(OC)cc3)cc2)C(=O)O)cc1 (stereo not drawn) ) = -3.89

Reported inhibition ( CC1CCCCC1NC(=O)COC(=O)Cc1ccc(Br)cc1 (stereo not drawn) ) = -8.18

Consider CCCCNC(=S)N/N=C1\CCCCc2ccccc21 . Its measured inhibition is 97.5

The compound Cn1c(=O)cc(OCC(=O)N2CCN(c3ccccc3F)CC2)c2ccccc21 showed inhibition equal to -1.08

Noted for Cn1cnnc1SCC(=O)NNC(=O)COc1ccc(Br)cc1 : its inhibition reads -4.37

// CCCC1CCC(=NNC(=S)NCCc2ccccc2)CC1 (stereo not drawn) : inhibition value = -9.55

---

Assay: Leishmania major promastigote growth inhibition, primary screen (AID 1063);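 also: promastigotes grown with compound for 44 hours at 28 °C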
Conditions: Leishmania major promastigotes, resazurin fluorescence viability; at 10 µM; stronger effect = higher value
Hit rate of the full screen: of about 200,000 compounds, about 18,000 (9%) were called active. Only a selection was taken, and actives are over-represented in it overall.
Listed here: items and their measured inhibition.
Value expressed in %; do not type the unit.

Solved entries:
>  <compound>
COC(=O)c1ccc(CN2CCN(CCCc3ccccc3)C(CCO)C2)cc1 (stereo unspecified)

>  <measuredValue>
83.9

$$$$
>  <compound>
CC(C)CCN1CCN(C/C=C/c2ccco2)CC1CCO (stereo unspecified)

>  <measuredValue>
5.83

$$$$
>  <compound>
COc1cc(C(=O)N2C(=O)c3cccc(N)c3C2=O)cc(OC)c1OC

>  <measuredValue>
-3.21

$$$$
>  <compound>
CC(C)CCN1CCN(Cc2ccc(C(F)(F)F)cc2)CC1CCO (stereo unspecified)

>  <measuredValue>
87.1

$$$$
>  <compound>
COC(=O)c1c(C)[nH]c(C)c1-c1ccc([N+](=O)[O-])cc1

>  <measuredValue>
12.6

$$$$

Item: CC(C)N1CCC(N2CCN(Cc3cccnc3)CC2CCO)CC1 (stereo unspecified) | inhibition: -2.03

---

Assay: Leishmania major promastigote growth inhibition, primary screen (AID 1063);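 also: promastigotes grown with compound for 44 hours at 28 °C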
Conditions: Leishmania major promastigotes, resazurin fluorescence viability; at 10 µM; stronger effect = higher value
Out of some 200,000 compounds screened, about 18,000 (9%) were called active. This is one part of a sample in which actives are shown more often than they occur.
Some compounds, each annotated with its measured inhibition.
The figure you give is taken to be in %; do not add the unit.

>  <compound>
Cc1[nH]c2ccccc2c1CCN(Cc1cccs1)C(=S)NC(C)(C)C

>  <parameter>
inhibition

>  <units>
%

>  <measuredValue>
-1.09

$$$$
>  <compound>
Cc1ccc(CCCOC(=O)C[N+]2(C)CCCCC2)cc1

>  <parameter>
inhibition

>  <units>
%

>  <measuredValue>
-3.49

$$$$
>  <compound>
CSCCC(=O)N1CCCC(CNC(=O)c2ccccc2Cl)C1 (stereo not drawn)

>  <parameter>
inhibition

>  <units>
%

>  <measuredValue>
-3.88

$$$$
>  <compound>
CCOC(=O)c1cc2c(=O)n3ccccc3nc2n(CC(C)C)c1=NC(=O)c1c(-c2c(F)cccc2Cl)noc1C

>  <parameter>
inhibition

>  <units>
%

>  <measuredValue>
98.8

$$$$
>  <compound>
O=C1CCCC2=C1C(c1ccccc1)n1c(s/c(=C/c3cccc(F)c3)c1=O)=N2 (stereo not drawn)

>  <parameter>
inhibition

>  <units>
%

>  <measuredValue>
60.3

$$$$
>  <compound>
CCOC(=O)C1CCCN(C(=O)c2cccc(S(=O)(=O)N3CCOCC3)c2)C1 (stereo not drawn)

>  <parameter>
inhibition

>  <units>
%

>  <measuredValue>
-6.48

$$$$

In plain terms, CC1=C/C(=N\S(=O)(=O)c2ccccc2)C(C(C)C)=CC1=O has a documented inhibition of -0.21

Form field inhibition, entry CCN1CCN(c2cc3nc(C)n(Cc4ccccc4)c(=O)c3cc2NC(=O)c2ccccc2F)CC1 : 98.3

// recorded inhibition for O=C(NCCCN1CCCCCC1)c1ccc(N2CCCC2=O)cc1 : 0.31

Per the records, this compound ( O=C(Cc1ccccc1)Nc1cccc(C(=O)N/N=C/c2ccco2)c1 ) has inhibition equal to -0.83

inhibition in this record for Cc1ccc(NC(=O)NNC(=O)c2sccc2-n2cccc2)cc1 : -8.12

Form: compound = COc1ccc(CCNC(=O)c2cc3sccc3n2C)cc1OC ; inhibition = 7.15

Entry COc1ccc2[nH]c(C)c(CCN(Cc3cccs3)C(=S)Nc3ccccc3OC)c2c1 ; inhibition = 66.1

Short answer for CCCNC(=O)c1c(Cl)cnn1-c1ccc(C)cc1 : inhibition was 6.12
